biological target: human SK4 (Homo sapiens); construct: expressed in transfected cells; host or cells: CHO cells; test: Whole-cell patch-clamp of WT SK4 K+ currents in transfected CHO cells; assay type: cell-based; conditions: WT SK4 currents in absence and presence of 20 μM compound
Measure Name: SK4 K+ channel modulating activity

Please review the following examples before continuing.
CCCCCCCn1c(=O)n(CCCCCCC)c2cc(C)ccc21 : Inactive
Cc1cc2[nH]c(=O)[nH]c2cc1C : Inactive
CCCCCn1c(=O)n(CCCCC)c2ccccc21 : Inactive
CCCCCCCn1c(=O)n(CCCCCCC)c2cc(F)ccc21 : Inactive
CCCCCn1c(=O)n(CCCCC)c2cc(C)ccc21 : Inactive
CCCCCCCn1c(=O)n(CCCCCCC)c2ccccc21 : Inactive

Tested on human SK4 (Homo sapiens), the item CCCCCCn1c(=O)n(CCCCCC)c2cc(F)ccc21 showed SK4 K+ channel modulating activity equal to Inactive

* * *

molecular target: human SK4 (Homo sapiens); construct: expressed in transfected cells; host or cells: CHO cells; experiment: Whole-cell patch-clamp of WT SK4 K+ currents in transfected CHO cells; format: cell-based; details: WT SK4 currents in absence and presence of 20 μM compound
Measure Name: SK4 K+ channel modulating activity

CCCn1c(=O)n(CCC)c2cc(C)ccc21 : Inactive
CCCCCCn1c(=O)n(CCCCCC)c2cc(C)c(C)cc21 : Inactive
CCCCCCCn1c(=O)n(CCCCCCC)c2cc(Cl)c(Cl)cc21 : Inactive

* * *

target: WT SK4 channels (Homo sapiens, UniProt O15554); experiment: Inside-out macro-patch recording of WT SK4 channels in transfected CHO cells; conditions: internal application after PIP2 depletion by PLL, 1 μM free-Ca2+; read-out: EC50 of activation of WT SK4 channels
Measure Name: EC50 (nM)
Express your answer in nM, writing the number without its unit.

response.value for CCCCCCCC(=O)OC[C@H](COP(=O)(O)O[C@@H]1[C@H](O)[C@H](O)[C@@H](OP(=O)(O)O)[C@H](OP(=O)(O)O)[C@H]1O)OC(=O)CCCCCCC [diC8-PIP2, reference compound] (field: EC50) = 154

* * *

biological target: human SK4 (Homo sapiens); assay: Whole-cell patch-clamp of WT SK4 K+ currents in transfected CHO cells; conditions: dose-dependent inhibition of WT SK4 channels; read-out: SK4 K+ channel modulating activity (IC50)
Measure Name: IC50 (µM)
Express your answer in µM, writing the number without its unit.

response.value for CCCCCCCn1c(=O)[nH]c2ccccc21 [BA6B] (field: IC50) = 50
